# PROTOCOL SUMMARY: LNP size and polydispersity index (PDI) by dynamic light scattering (DLS)
# Type: physicochemical
# CONDITION DESCRIPTION: Table 6; LNP 60:0:38.5:1.5 mol %; hEPO mRNA; N:P 6
Each item that follows carries a reported PDI.
ASSAY ENDPOINT: PDI

[[record]]
molecule = "CCCCCCCCC(CCCCCC)C(=O)OCCN(CCOC(=O)C(CCCCCC)CCCCCCCC)C(=O)CCN (stereo not drawn)"
result_value = 0.169

[[record]]
molecule = "CCCCCCCCC(CCCCCC)C(=O)OCCN(CCOC(=O)C(CCCCCC)CCCCCCCC)C(=O)CCN(C)C (stereo not drawn)"
result_value = 0.012

[[record]]
molecule = "CCCCCCCCC(CCCCCC)C(=O)OCCN(CCOC(=O)C(CCCCCC)CCCCCCCC)C(=O)CCCN(C)C (stereo not drawn)"
result_value = 0.079

[[record]]
molecule = "CCCCCCCCC(CCCCCC)C(=O)OCCN(CCOC(=O)C(CCCCCC)CCCCCCCC)C(=O)CCC(C)N (stereo not drawn)"
result_value = 0.137

[[record]]
molecule = "CCCCCCCCC(CCCCCC)C(=O)OCCN(CCOC(=O)C(CCCCCC)CCCCCCCC)C(=O)CCCN (stereo not drawn)"
result_value = 0.147

[[record]]
molecule = "CCCCCCCCC(CCCCCC)C(=O)OCCN(CCOC(=O)C(CCCCCC)CCCCCCCC)C(=O)CC(C)N (stereo not drawn)"
result_value = 0.195

